Target: PCP receptors
Assay: Scatchard analysis of [3H]TCP binding after treatment with affinity ligand
Design: species or system rat
Conditions: 10 μM affinity ligand; value is for [3H]-TCP (1.0 to 150 nM); read-out: Kd ([3H]-TCP) in treated tissue
endpointName: pKd
Scale note: pKd = -log10(concentration in M).

I would be grateful if you could share the reported pKd for S=C=Nc1csc(C2(N3CCCCC3)CCCCC2)c1 [Thiophit] . 7.57

* * *

Molecular target: PCP receptors
Test: [3H]PCP binding (Scatchard) in brain homogenates of rats pretreated i.c.v. with Metaphit or saline
Parameters: species or system rat (male Sprague-Dawley)
Conditions: saline-pretreated rats; mean ±S.E.
endpointName: pKd
Scale note: pKd = -log10(concentration in M).

I would be grateful if you could share the reported pKd for c1ccc(C2(N3CCCCC3)CCCCC2)cc1 [[3H]-PCP] . 6.63

Source listed as patent US4762846A.
